biological target: human OX2R (Homo sapiens, UniProt O43614); assay: IPOne (IP-One) orexin receptor agonist assay in CHO cells expressing human OX2R; conditions: CHO cells expressing human OX2R; IP-One detection; 2 hours incubation; four parameter logistic fit; read-out: OX2R Potency, EC50
Sequence (O43614 whole entry): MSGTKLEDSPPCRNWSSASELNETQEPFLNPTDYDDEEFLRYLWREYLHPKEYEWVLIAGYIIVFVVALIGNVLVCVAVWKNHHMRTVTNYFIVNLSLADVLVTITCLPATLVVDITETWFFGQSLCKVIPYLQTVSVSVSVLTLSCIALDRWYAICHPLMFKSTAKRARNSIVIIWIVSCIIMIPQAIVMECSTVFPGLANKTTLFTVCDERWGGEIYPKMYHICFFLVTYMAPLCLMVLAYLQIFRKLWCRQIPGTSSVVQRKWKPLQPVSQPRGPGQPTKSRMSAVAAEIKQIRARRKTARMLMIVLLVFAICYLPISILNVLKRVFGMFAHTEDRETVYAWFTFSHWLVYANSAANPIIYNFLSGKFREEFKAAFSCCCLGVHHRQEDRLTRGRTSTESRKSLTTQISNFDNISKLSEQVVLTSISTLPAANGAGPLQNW
Catalogue of pEC50 values
// pEC50: -log10(molar conc.)

The examples below pair each entry with its known result.
>>> readout_value("COc1cccnc1N1CC[C@H](NS(C)(=O)=O)[C@@H]1CO[C@H]1CC[C@@H](c2ccccc2)CC1")
8.15
>>> readout_value("CS(=O)(=O)N[C@H]1CCN(c2ncc(Cl)c(O)c2F)[C@H]1CO[C@H]1CC[C@@H](c2ccccc2)CC1")
8.77
>>> readout_value("CS(=O)(=O)N[C@H]1CCN(c2cncc(O)c2)[C@H]1CO[C@H]1CC[C@@H](c2ccccc2)CC1")
8.05

Task item: Indicate the recorded pEC50 value for this molecule: CS(=O)(=O)N[C@H]1CCN(c2cc[nH]c(=O)c2)[C@H]1CO[C@H]1CC[C@@H](c2ccccc2)CC1
Reply: 7.28

Origin of values: patent US12312332B2
